system: Enterococcus faecium ATCC 700221 (VRE; vancomycin-resistant); experiment: Broth microdilution MIC; assay type: cell-based; details: Table 2; polC WT, strain ATCC 700221
Below: a set of entries, each annotated with reported Measured MIC.

Worked cases, Measured MIC given:
O=c1[nH]c(NCc2ccc3c(c2)OC(F)(F)O3)nc2c(F)nn(CCO)c12	1 µg/mL
CC(=O)NC[C@H]1CN(c2ccc(N3CCOCC3)c(F)c2)C(=O)O1	4 µg/mL
CN(C)c1cc(CNCC(C)(C)C)c(O)c2c1C[C@H]1C[C@H]3[C@H](N(C)C)C(O)=C(C(N)=O)C(=O)[C@@]3(O)C(O)=C1C2=O	0.12 µg/mL
O=c1[nH]c(NCc2ccc(Cl)c(Cl)c2)nc2ncn(CCN3CCOCC3)c12	2 µg/mL
CCCCCCCCCC(=O)N[C@@H](Cc1c[nH]c2ccccc12)C(=O)N[C@H](CC(N)=O)C(=O)N[C@@H](CC(=O)O)C(=O)N[C@@H]1C(=O)NCC(=O)N[C@@H](CCCN)C(=O)N[C@@H](CC(=O)O)C(=O)N[C@H](C)C(=O)N[C@@H](CC(=O)O)C(=O)NCC(=O)N[C@H](CO)C(=O)N[C@@H]([C@H](C)CC(=O)O)C(=O)N[C@@H](CC(=O)c2ccccc2N)C(=O)O[C@@H]1C	4 µg/mL

For the next question, use this compound.
Retrieve Measured MIC measured for "CN[C@H](CC(C)C)C(=O)N[C@H]1C(=O)N[C@@H](CC(N)=O)C(=O)N[C@H]2C(=O)N[C@H]3C(=O)N[C@H](C(=O)N[C@H](C(=O)O)c4cc(O)cc(O)c4-c4cc3ccc4O)[C@H](O)c3ccc(c(Cl)c3)Oc3cc2cc(c3O[C@@H]2O[C@H](CO)[C@@H](O)[C@H](O)[C@H]2O[C@H]2C[C@](C)(N)[C@H](O)[C@H](C)O2)Oc2ccc(cc2Cl)[C@H]1O" and print it.
>64 µg/mL

* * *

Target: E. faecium PolC^F1276L (exonuclease-inactivated) (Enterococcus faecium, UniProt A0A9X4B319, D429A/E431A/F1274L)
Test: Real-time DNA primer extension assay
Description: The genes for PolC (locus_tag: MIBBHLJO_01574) and DnaE (locus_tag: MIBBHLJO_00911) from E. faecium ATCC 700221 were codon-optimized for expression in E. coli and synthesized in vector pET28b by Twist Bioscience (San Francisco, CA). […] Polymerase activity was monitored in real-time[31],[32] with a 42-nt long 5’ carboxyfluorescein-labelled DNA oligonucleotide template strand (DNASP8_42) annealed to a 30-nt primer oligonucleotide (oMU014). […]
pIC50: −log10 of the molar value.
Below: a set of entries, each annotated with reported pIC50.

O=c1[nH]c(NCc2ccc(Cl)c(Cl)c2)nc2ncn(CCN3CCOCC3)c12 [IBZ]	< 3.65

For the next question, use this molecule.
Retrieve pIC50 measured for O=c1[nH]c(NCc2ccc3c(c2)OC(F)(F)O3)nc2c(F)nn(CCO)c12 [ACX-801] and print it.
< 3.65

* * *

Target: UniProt Q3XYP9
Sequence (Q3XYP9 1-1104): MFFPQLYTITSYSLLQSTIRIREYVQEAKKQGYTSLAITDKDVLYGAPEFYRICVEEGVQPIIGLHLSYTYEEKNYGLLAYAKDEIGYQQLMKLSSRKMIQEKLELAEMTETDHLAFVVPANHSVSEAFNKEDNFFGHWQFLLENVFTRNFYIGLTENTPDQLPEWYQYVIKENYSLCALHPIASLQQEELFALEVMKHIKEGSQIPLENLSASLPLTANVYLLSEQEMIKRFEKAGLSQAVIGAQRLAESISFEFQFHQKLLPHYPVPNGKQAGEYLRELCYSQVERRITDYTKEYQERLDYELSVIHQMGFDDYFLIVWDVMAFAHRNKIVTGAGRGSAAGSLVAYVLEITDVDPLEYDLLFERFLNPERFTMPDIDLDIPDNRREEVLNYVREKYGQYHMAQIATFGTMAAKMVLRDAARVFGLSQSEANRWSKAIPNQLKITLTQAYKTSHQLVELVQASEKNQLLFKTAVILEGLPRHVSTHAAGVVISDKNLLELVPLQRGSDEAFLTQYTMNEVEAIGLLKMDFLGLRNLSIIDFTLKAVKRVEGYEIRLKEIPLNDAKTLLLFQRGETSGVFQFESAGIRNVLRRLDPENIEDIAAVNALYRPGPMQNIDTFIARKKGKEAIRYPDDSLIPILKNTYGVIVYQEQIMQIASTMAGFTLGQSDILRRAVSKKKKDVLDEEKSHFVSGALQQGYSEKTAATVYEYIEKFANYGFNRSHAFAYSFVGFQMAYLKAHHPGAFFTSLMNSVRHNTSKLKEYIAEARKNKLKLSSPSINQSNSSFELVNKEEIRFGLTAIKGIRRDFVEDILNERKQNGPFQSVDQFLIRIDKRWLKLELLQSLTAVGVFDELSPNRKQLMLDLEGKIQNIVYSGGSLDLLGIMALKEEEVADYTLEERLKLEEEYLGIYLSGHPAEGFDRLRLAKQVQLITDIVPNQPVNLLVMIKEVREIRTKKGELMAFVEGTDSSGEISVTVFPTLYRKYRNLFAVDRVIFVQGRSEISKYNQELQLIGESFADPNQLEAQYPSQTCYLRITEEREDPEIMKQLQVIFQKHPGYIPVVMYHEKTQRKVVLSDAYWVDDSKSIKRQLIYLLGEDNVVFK
Quantity: IC50

O=c1[nH]c(NCc2ccc(Cl)c(Cl)c2)nc2ncn(CCN3CCOCC3)c12 [IBZ]	89.3 µM

For the next question, use this molecule.
Give IC50 for O=c1[nH]c(NCc2ccc3c(c2)OC(F)(F)O3)nc2c(F)nn(CCO)c12 [ACX-801] tested on UniProt Q3XYP9.
> 100 µM

* * *

tested on: E. faecium strains with polC mutations (A1281T, F1276I, F1276L, F1276S); assay: Cross-resistance MIC of reduced susceptible E. faecium strains; assay type: cell-based, Enterococcus faecium; settings: Enterococcus faecium, read-out: Measured MIC, polC F1276I, strain Efa037, selected on 4 mg/L ACX-641
Below: a set of entries, each annotated with reported MIC.
Numeric only. Scale: µg/mL

CCCCCCCCCC(=O)N[C@@H](Cc1c[nH]c2ccccc12)C(=O)N[C@H](CC(N)=O)C(=O)N[C@@H](CC(=O)O)C(=O)N[C@@H]1C(=O)NCC(=O)N[C@@H](CCCN)C(=O)N[C@@H](CC(=O)O)C(=O)N[C@H](C)C(=O)N[C@@H](CC(=O)O)C(=O)NCC(=O)N[C@H](CO)C(=O)N[C@@H]([C@H](C)CC(=O)O)C(=O)N[C@@H](CC(=O)c2ccccc2N)C(=O)O[C@@H]1C [DAP, daptomycin]	2

Retrieve MIC measured for CC(=O)NC[C@H]1CN(c2ccc(N3CCOCC3)c(F)c2)C(=O)O1 [LZD, linezolid] and print it.
4

* * *

tested on: E. faecium strains with polC mutations (A1281T, F1276I, F1276L, F1276S); test: Cross-resistance MIC of reduced susceptible E. faecium strains; format: cell-based, Enterococcus faecium; settings: Enterococcus faecium, read-out: Measured MIC, polC A1281T, strain Efa036, selected on 2 mg/L ACX-641
Quantity: MIC (µg/mL)
Numeric only. Scale: µg/mL

Worked cases, MIC given:
CN(C)c1cc(CNCC(C)(C)C)c(O)c2c1C[C@H]1C[C@H]3[C@H](N(C)C)C(O)=C(C(N)=O)C(=O)[C@@]3(O)C(O)=C1C2=O	0.12
O=c1[nH]c(NCc2ccc(Cl)c(Cl)c2)nc2ncn(CCN3CCOCC3)c12	16

For the next question, use this compound.
Retrieve MIC measured for "CC(=O)NC[C@H]1CN(c2ccc(N3CCOCC3)c(F)c2)C(=O)O1" and print it.
4

* * *

Below: a set of entries, each annotated with reported IC50.
target: UniProt P10443
Sequence (P10443 whole entry): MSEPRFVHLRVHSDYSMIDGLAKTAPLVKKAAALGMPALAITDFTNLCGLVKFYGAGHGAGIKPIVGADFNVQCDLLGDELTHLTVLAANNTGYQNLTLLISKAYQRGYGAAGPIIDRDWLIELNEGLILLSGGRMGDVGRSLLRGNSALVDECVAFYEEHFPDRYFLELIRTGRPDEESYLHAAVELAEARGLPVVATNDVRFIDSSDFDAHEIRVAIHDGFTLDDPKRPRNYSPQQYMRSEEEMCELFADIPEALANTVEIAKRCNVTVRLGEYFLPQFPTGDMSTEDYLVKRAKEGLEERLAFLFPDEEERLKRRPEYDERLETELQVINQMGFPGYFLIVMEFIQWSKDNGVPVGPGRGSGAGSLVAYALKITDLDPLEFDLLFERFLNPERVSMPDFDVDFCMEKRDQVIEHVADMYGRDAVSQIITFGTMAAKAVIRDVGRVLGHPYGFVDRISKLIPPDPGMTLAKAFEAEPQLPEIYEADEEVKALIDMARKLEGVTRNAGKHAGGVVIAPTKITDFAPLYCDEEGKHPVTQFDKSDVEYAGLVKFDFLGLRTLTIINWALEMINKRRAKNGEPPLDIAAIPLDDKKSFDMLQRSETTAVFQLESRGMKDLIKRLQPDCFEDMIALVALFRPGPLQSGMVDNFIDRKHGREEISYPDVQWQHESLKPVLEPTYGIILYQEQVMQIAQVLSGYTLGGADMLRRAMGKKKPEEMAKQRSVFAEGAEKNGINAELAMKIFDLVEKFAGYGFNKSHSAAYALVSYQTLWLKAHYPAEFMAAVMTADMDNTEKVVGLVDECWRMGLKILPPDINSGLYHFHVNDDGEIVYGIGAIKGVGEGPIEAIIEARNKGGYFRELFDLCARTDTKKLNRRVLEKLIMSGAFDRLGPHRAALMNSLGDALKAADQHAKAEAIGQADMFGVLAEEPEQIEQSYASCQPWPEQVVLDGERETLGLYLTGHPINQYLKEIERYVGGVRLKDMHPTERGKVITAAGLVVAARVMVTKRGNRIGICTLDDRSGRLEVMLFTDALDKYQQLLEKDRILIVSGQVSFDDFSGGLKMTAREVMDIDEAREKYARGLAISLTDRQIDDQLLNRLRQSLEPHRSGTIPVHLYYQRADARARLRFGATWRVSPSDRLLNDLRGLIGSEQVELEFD

O=c1[nH]c(NCc2ccc(Cl)c(Cl)c2)nc2ncn(CCN3CCOCC3)c12	> 100 µM

Give IC50 for "O=c1[nH]c(NCc2ccc3c(c2)OC(F)(F)O3)nc2c(F)nn(CCO)c12" tested on UniProt P10443.
> 100 µM

* * *

test system: E. faecium strains with polC mutations (A1281T, F1276I, F1276L, F1276S); test: Cross-resistance MIC of reduced susceptible E. faecium strains; assay type: cell-based, Enterococcus faecium; conditions: Enterococcus faecium, read-out: Measured MIC, polC F1276L, strain Efa030, selected on 16 mg/L ACX-728
Quantity: MIC

CCCCCCCCCC(=O)N[C@@H](Cc1c[nH]c2ccccc12)C(=O)N[C@H](CC(N)=O)C(=O)N[C@@H](CC(=O)O)C(=O)N[C@@H]1C(=O)NCC(=O)N[C@@H](CCCN)C(=O)N[C@@H](CC(=O)O)C(=O)N[C@H](C)C(=O)N[C@@H](CC(=O)O)C(=O)NCC(=O)N[C@H](CO)C(=O)N[C@@H]([C@H](C)CC(=O)O)C(=O)N[C@@H](CC(=O)c2ccccc2N)C(=O)O[C@@H]1C [DAP, daptomycin]	2 µg/mL
CC(=O)NC[C@H]1CN(c2ccc(N3CCOCC3)c(F)c2)C(=O)O1 [LZD, linezolid]	4 µg/mL
O=c1[nH]c(NCc2ccc3c(c2)OC(F)(F)O3)nc2c(F)nn(CCO)c12 [ACX-801]	64 µg/mL
CN(C)c1cc(CNCC(C)(C)C)c(O)c2c1C[C@H]1C[C@H]3[C@H](N(C)C)C(O)=C(C(N)=O)C(=O)[C@@]3(O)C(O)=C1C2=O [OMC, omadacycline]	0.12 µg/mL

Retrieve MIC measured for O=c1[nH]c(NCc2ccc(Cl)c(Cl)c2)nc2ncn(CCN3CCOCC3)c12 [IBZ] and print it.
> 64 µg/mL
